Recorded sensor-assay potency score (higher = more potent) values for a group of sequences are listed next.
target_entity: STAT5B; further: reference of the scale not given here
assay_comment: pooled miR-30 sensor sort-seq; sequence = guide strand
condition_summary: shRNA
Please reply with the number alone, leaving off any unit.

{"sequence": "TATACTTCATCTTTTGGCCGAT", "data_value": -0.0426}
{"sequence": "TTCTCAATGATGAACGTGCTGG", "data_value": -0.64}
{"sequence": "TAACACTTCCATCACACCGTCA", "data_value": -0.288}

Which sensor-assay potency score (higher = more potent) is listed for `TTAACACTTCCATCACACCGTC` ?
-0.414

# iterate: `TTGGCTTCTCGGACCAACCTCT`
-0.339

# iterate: `TAACTCATTCTCTGTGTCCTGC`
0.72
